- Tested on: MOLT-4 leukemia
- experiment.summary: NCI-60 one-dose screen, 48 h (100 = growth as untreated, 0 = no growth, -100 = all killed)
- cond: 10 µM unless noted
About 83,000 compounds went through this panel and 20% of them were active in at least one assay; those are over-represented in the sample as a whole.
Record y whenever growth is at 50% or higher; record n when lower.

[
  {
    "compound": "CN=S(=O)(NC(=O)c1ccc(Cl)cc1Cl)c1ccc(Br)s1 (stereo not given)",
    "class": "y"
  }
]

Query compound follows.
**Query** Is it the case that `Cc1cccc(NC(=O)c2sc3nc4c(cc3c2N)CCC4)c1C` has growth reaching or exceeding 50%?
**Result** n

====

- System: EKVX NSCLC
- experiment.summary: NCI-60 one-dose screen, 48 h (100 = growth as untreated, 0 = no growth, -100 = all killed)
- cond: 10 µM unless noted
Compounds without any hit were thinned out: in the full panel of roughly 83,000, 20% have a hit. Active and inactive are the calls of the source. Rule for the calls: active = growth percent below 10; inactive = the rest.
# key: entry, value: growth

**Query** # value lookup — system EKVX NSCLC, readout growth, item `CCO/C=N/NC(=O)c1ccncc1`
**Result** 102% (inactive)

**Query** Moving on to the next compound: `COc1cccc2cc(-c3cc4ccccc4[nH]3)/c(=N/C(=S)Nc3ccccc3)oc12`
**Result** 87.3% (inactive)

**Query** Same again, this time with `Cc1sc2nc(CSc3nnc(-c4ccco4)o3)[nH]c(=O)c2c1C`
**Result** 110% (inactive)

**Query** Same for `COC(=O)c1ccc2nc(-c3cc4ccccc4n3C)n(CCCCOc3cc4c(cc3OC)C(=O)N3CCC[C@H]3C=N4)c2c1`
**Result** 10.8% (inactive)

**Query** Okay, and `O=C(Cc1c(F)cccc1Cl)Nc1ccc(S(=O)(=O)Nc2ncccn2)cc1` ?
**Result** 100% (inactive)

====

- Test system: SW-620 colon
- experiment.summary: NCI-60 one-dose screen, 48 h
- cond: 10 µM unless noted
- Method: Growth inhibition of the SW-620 human tumor cell line is measured as a screen for anti-cancer activity. Cells are grown in 96 well plates and exposed to the test compound for 48 hours. Compounds are tested at a single concentration, which is 10^-5 M for most compounds. The reported endpoint is percent growth (GI% or GIPRCNT), where numbers from 0 - 100% represent growth inhibition, and numbers from -100% - 0 represent cell death. For example, a value of 40 represents 60% growth inhibition. […]
About 83,000 compounds went through this panel and 20% of them were active in at least one assay; those are over-represented in the sample as a whole. Active and inactive are the calls of the source. The calls were made as follows: active = growth percent below 10; inactive = the rest.
Your answer must be one of the following: yes (1) (active), no (0) (inactive)

**Query** Write down the call the test reported for this molecule. Item: `COc1cc(Br)c(OC)cc1Br`
**Result** no (0)

**Query** What would you report for O=C(COc1ccccc1)N1N=C(c2ccc(Cl)cc2)CC1c1c[nH]c2ccccc12 (centres undefined) ?
**Result** no (0)

**Query** Let us now turn to `CCN(CC)P(=O)(N(CC)CC)N(CCCSC/C=C(\C)CC/C=C(\C)CCC=C(C)C)CCCN1CCN(C)CC1`
**Result** no (0)

**Query** // repeat for `COc1cc(-n2nc(C(=O)Nc3ccc(C(=O)O)cc3)nc2-c2ccccc2)cc(OC)c1OC` and report
**Result** no (0)
